Attribution: patent US20230272099A1

Biological target: T1, biotinylated Fc-fused monkey CD137 (monkey, biotin on the AviTag)
T1 construct: also called cyCD137-Fc-BAP
T1 sequence (chain, as listed by the source limits assumed): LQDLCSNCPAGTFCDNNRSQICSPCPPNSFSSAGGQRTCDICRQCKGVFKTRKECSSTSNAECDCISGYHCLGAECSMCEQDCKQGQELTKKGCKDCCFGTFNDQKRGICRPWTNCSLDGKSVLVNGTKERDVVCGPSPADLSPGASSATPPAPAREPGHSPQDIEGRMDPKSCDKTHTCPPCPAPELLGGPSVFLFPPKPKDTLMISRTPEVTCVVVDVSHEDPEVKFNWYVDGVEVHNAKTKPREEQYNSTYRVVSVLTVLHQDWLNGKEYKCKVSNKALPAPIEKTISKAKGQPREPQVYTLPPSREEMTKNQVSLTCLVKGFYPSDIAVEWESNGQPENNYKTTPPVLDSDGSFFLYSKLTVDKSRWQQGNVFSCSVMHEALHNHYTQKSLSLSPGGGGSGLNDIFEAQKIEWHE
Experiment: ELISA, 1 mM ADP, 2.5 ug/mL
Set-up: reference not given here

>  <binder>
dBBAT053-P253 (antibody, human IgG1, lambda, V domains shown) VH: EVQLVESGGDLVKPGGGLRLSCAASGFTFSTFTMNWVRQAPGKGLEWVSSISSRSNYIYYADSVKGRFTISRDNAKNSLYLQMNSLRAEDTAVYYCARFGLKNEMNWVFDYWGQGTLVTVSS VL: QSALTQPPSASGSPGQTVTISCTGTSSDVGFYNYVSWYQQHPGKAPKLMIYEGSKKPSGVPDRFSGSKSGNTASLTVSGLQAEDEADYFCSVYSYIYYVLFGGGTKLTVLG

>  <absorbance ratio>
6.9

$$$$
